assay: mevalonate kinase inhibition dose curves – biochemical, PK/LDH-coupled NADH absorbance, hexokinase coupling counter-screen, dose response (AID 557); conditions: purified MK, PK/LDH coupled NADH absorbance 340 nm; measured here: coupling enzymes counter-screen (hexokinase)
REPORTED_METRIC: IC50 (µM)
Your answer should be a plain number; it is taken to be in µM.

Query: # IC50 lookup, item CCn1nc(-c2cccs2)nc2c(=O)n(C)c(=O)nc1-2
Reply: 9.46

Query: Name the recorded IC50 for CN(Cc1c(O)ccc2c1oc(=O)c1ccccc12)C1CCCCC1 .
Reply: 8.83

* * *

molecular target: mevalonate kinase (Streptococcus pneumoniae D39); assay: mevalonate kinase inhibition dose curves – biochemical, PK/LDH-coupled NADH absorbance, hexokinase coupling counter-screen, dose response (AID 557); conditions: purified MK, PK/LDH coupled NADH absorbance 340 nm
REPORTED_METRIC: pIC50
Note on units: pIC50 is unitless, being -log10 of a concentration expressed in mol/L.

Query: What value of pIC50 has been reported for the following molecule? CCN(CC)S(=O)(=O)c1ccc(NC2c3ncccc3C(=O)N2Cc2ccccc2)cc1 (stereo not given)
Reply: 4.66

Query: Consider the molecule shown here: COc1ccc(CN2C(=O)c3cccnc3C2Nc2cc(Cl)ccc2OC)cc1 (stereo not given) What is its recorded pIC50?
Reply: 5.24

Query: For the molecule shown here, O=C1C(=O)N(CCN2CCOCC2)C(c2ccncc2)/C1=C(/O)c1ccc2c(c1)OCO2 (stereo not given) , give the reported pIC50.
Reply: 3.94

Query: Dear colleague, I am looking for the recorded pIC50 of the following molecule: Cc1ccc(NC2c3ncccc3C(=O)N2c2ccccc2C)cc1C (stereo not given)
Reply: 5.35

Query: So what's the measured pIC50 for this one? COc1ccc(CN2C(=O)c3cccnc3C2Nc2cc(Cl)c(OC)cc2OC)cc1 (stereo not given)
Reply: 4.82

* * *

biological target: mevalonate kinase (Streptococcus pneumoniae D39); assay: mevalonate kinase inhibition dose curves – biochemical, PK/LDH-coupled NADH absorbance, hexokinase coupling counter-screen, dose response (AID 557); details: purified MK, PK/LDH coupled NADH absorbance 340 nm
The source made the active and inactive calls.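 Rule for the calls: active = clearly stronger inhibition of the target kinase than of the helper enzymes tested alone in a counter assay; inactive = the rest.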
REPORTED_METRIC: outcome

{"MOLECULE": "CC(C)C1Oc2ccccc2N(CC(=O)NCCCN2C(C)CCCC2C)C1=O (configuration not stated)", "outcome": "inactive"}
{"MOLECULE": "CN1CCN(c2nc3c(c(=O)n(C)c(=O)n3C)n2Cc2cccc3ccccc23)CC1", "outcome": "inactive"}
{"MOLECULE": "N/C(CCN1CCOCC1)=N/O", "outcome": "inactive"}
{"MOLECULE": "CCn1c(SCC(=O)c2ccccc2)nc2c(c1=O)SC(C)C2 (configuration not stated)", "outcome": "inactive"}
{"MOLECULE": "CCCCn1c(Cl)nc2c1c(=O)n(C)c(=O)n2C", "outcome": "inactive"}
{"MOLECULE": "Cn1c(SCCOc2cccc(Cl)c2)nnc1-c1ccncc1", "outcome": "inactive"}

Query: I have this molecule here, CN(CCC(=O)Nc1ccc2c(c1)OCO2)Cc1ccccc1 , and I need its recorded outcome.
Reply: inactive

Query: Entry O=c1c(-c2ccccc2)c(O)c2cccc3c2n1CCC3 has what outcome?
Reply: inactive

Query: Entry CCOC(=O)c1[nH]c2ccccc2c1NC(=O)c1ccc(Br)o1 : reported outcome = ?
Reply: inactive

Query: Fill blank: measured outcome of the molecule Cc1cccc(NC(=O)c2cnc3sccn3c2=O)n1 is ____.
Reply: inactive

Query: outcome; subject: CCOc1cc(C(=O)NCCN2CCOCC2)cc(OCC)c1OCC
Reply: inactive

Query: Reported outcome, molecule COc1ccc(Cl)cc1NC(=O)C1CCCN(S(=O)(=O)c2cccc3nonc23)C1 (configuration not stated) : ____
Reply: inactive

Query: Endpoint output: outcome of CCn1c(CC(C)C)n[nH]c1=S . Value?
Reply: inactive

Query: Report outcome for Cc1nn(-c2ccccc2)c2c1C(O)n1c(nc3ccccc31)S2 (configuration not stated) please.
Reply: inactive

Query: # lookup: outcome of Cc1cc(N2CCN(C(=O)c3ccco3)CC2)n2ncnc2n1
Reply: inactive

Query: Field request: outcome | item: CC1=NN(c2ccccc2)C(=O)C1
Reply: inactive

Query: outcome for COC(=O)C1=C(C)OC(N)=C(C#N)C1c1cc(OC)c(OCC(N)=O)cc1Cl (configuration not stated) ?
Reply: inactive

Query: I have this molecule here, Cc1noc(C)c1C(=O)OCC(=O)/C=C1\N(C)c2ccccc2C1(C)C , and I need its recorded outcome.
Reply: inactive

Query: # outcome lookup, item O=C(COC(=O)Cc1ccc(S(=O)(=O)N2CCOCC2)s1)NCc1ccccc1
Reply: inactive

Query: So what does the record say about outcome for CCOC(=O)c1cc2sc(C)cc2n1CC(=O)N1CCN(C(=O)c2ccco2)CC1 ?
Reply: inactive

Query: So what does the record say about outcome for CC(C)OCCCNC(=O)CN1C(=O)CC(C)(C)S(=O)(=O)c2ccccc21 ?
Reply: inactive

Query: Data request, read-out outcome, for Cc1cc(NC(=O)c2cc(C3CC3)on2)no1
Reply: inactive

This collection of values is drawn from PubChem BioAssay AID557.
